pIC50: −log10 of the molar value.
For reference, the following pIC50 results for USP19 (Homo sapiens (Human), UniProt O94966) were taken from various sources.

| Compound | pIC50 |
| --- | --- |
| C[C@H](CC(F)(F)F)C(=O)N1CCC(O)(CN2Cc3ncccc3C2=O)C2(CCCC2)C1 (stereo partly shown) | 3.60 to 4.30 |
| O=C([C@@H]1CNC[C@H]1c1ccccc1)N1CC[C@@](O)(Cn2cnc(-c3ccccc3)cc2=O)C2(CCCC2)C1 (mixture of isomers) | > 6.30 |
| O=C(C[C@H](c1ccccc1)C(F)(F)F)N1CCC(O)(Cn2cnc(-c3ccccc3F)cc2=O)CC1 | 3.60 to 4.30 |
| C[C@H](CC1CCCCC1)C(=O)N1CCC(O)(Cn2cc(C(=O)N(C)C)c(-c3cccc(CO)c3)cc2=O)C2(CCCC2)C1 (stereo partly shown) | > 6.30 |
| Cc1cccc2c(=O)n(CC3(O)CCN(C(=O)[C@H](C)CC4CCCCC4)CC34CCCC4)cnc12 (stereo partly shown) | 5.30 to 6.30 |
| C[C@H](CC(F)(F)F)C(=O)N1CCC(O)(Cn2cnc3cc(F)c(Cl)cc3c2=O)C2(CCCC2)C1 (stereo partly shown) | 4.30 to 5.30 |
| C[C@H](CC1CCCCC1)C(=O)N1CCC(O)(Cn2cc(-c3ccccn3)ncc2=O)C(C)(C)C1 (stereo partly shown) | 4.30 to 5.30 |
| O=C(N1CCC(O)(Cn2cnc3c(cnn3Cc3ccccc3)c2=O)C2(CCCC2)C1)N1CCOC[C@H]1c1ccccc1 (stereo partly shown) | 5.30 to 6.30 |
| C[C@H](CC1CCCCC1)C(=O)N1CCC(O)(Cn2cc(-c3cccnc3)ncc2=O)C(C)(C)C1 (stereo partly shown) | 5.30 to 6.30 |
| O=C(N1CC[C@@](O)(Cn2cnc(N3CCCCC3)cc2=O)C2(CCCC2)C1)N1CCNC[C@H]1c1ccccc1 | > 6.30 |
| CC(C)c1coc([C@@H]2CCCN2C(=O)N2CCC(O)(Cn3cnc(-c4ccccc4)cc3=O)C3(CCCC3)C2)n1 (stereo partly shown) | 3.60 to 4.30 |
| C[C@H](CC(=O)N1CCC(O)(Cn2cc(C(=O)N3CCN(C(=O)OC(C)(C)C)CC3)c(-c3ccccc3)cc2=O)CC1)c1ccccc1 | 4.30 to 5.30 |
| CC1CN(CC2(O)CCN(C(=O)[C@H](C)CC(F)(F)F)CC23CCCC3)C(=O)CO1 (stereo partly shown) | 3.60 to 4.30 |
| C[C@H](CC1CCC1)C(=O)N1CC[C@@](O)(Cn2cc(C(=O)N(C)C)c(-c3ccccc3)cc2=O)C2(CCCC2)C1 | > 6.30 |
| O=C(N1CCC(O)(Cn2cnc(-c3ccccc3)cc2=O)C2(CCCC2)C1)N1CCCC1c1cccnc1 (stereo not shown) | 5.30 to 6.30 |
| C[C@H](CC1CCCCC1)C(=O)N1CCC(O)(Cn2cc(C(=O)N3CCN(C)CC3)c(-c3ccccc3)cc2=O)C(C)(C)C1 (stereo partly shown) | > 6.30 |
| O=C1Cn2ccnc2CN1CC1(O)CCN(C(=O)N2CCNC[C@H]2c2ccccc2)CC12CCCC2 (stereo partly shown) | 5.30 to 6.30 |
| C[C@H](CC1CCCCC1)C(=O)N1CC[C@@](O)(Cn2cc(C(=O)N3CCN(C)CC3)c(-c3ccccc3)cc2=O)C2(CCCC2)C1 | > 6.30 |
| CN(C)C(=O)c1cn(CC2(O)CCN(C(=O)C3(C)CCCC3)CC23CCCC3)c(=O)cc1-c1ccccc1 (stereo not shown) | 3.60 to 4.30 |
| O=C(N1CC[C@@](O)(Cn2cnc(N3CCC(F)(F)CC3)cc2=O)C2(CCCC2)C1)N1CCNC[C@H]1c1ccccc1 | > 6.30 |
| O=C(N1CC[C@@](O)(Cn2cnc(-c3ccccc3)cc2=O)C2(CCCC2)C1)N1CCOC[C@H]1c1nc2ccccc2[nH]1 | 3.60 to 4.30 |
| CC(C)N(C)C(=O)c1cn(C[C@]2(O)CCN(C(=O)[C@H](C)CC3CCCCC3)CC2(C)C)c(=O)cc1-c1ccccc1 | > 6.30 |
| C[C@H](CC(=O)N1CCC(O)(Cn2cc(C(=O)N3CCC(O)CC3)c(-c3ccccc3)cc2=O)CC1)c1ccccc1 | 5.30 to 6.30 |
| CC(=O)Nc1cccc(-c2cn(CC3(O)CCN(C(=O)C[C@@H](C)c4ccccc4)CC3)c(=O)cc2-c2ccccc2)c1 | 4.30 to 5.30 |
| C[C@H](CC(F)(F)F)C(=O)N1CCC(O)(Cn2ccc3ccncc3c2=O)C2(CCCC2)C1 (stereo partly shown) | 4.30 to 5.30 |
| Cc1cccc(-c2cc(=O)n(CC3(O)CCN(C(=O)C[C@@H](C)c4ccccc4)CC3)cc2C(=O)N(C)C(C)C)c1 | 5.30 to 6.30 |
| C[C@H](CC1CCCCC1)C(=O)N1CCC(O)(Cn2cnc(-c3ccsc3)cc2=O)C(C)(C)C1 (stereo partly shown) | > 6.30 |
| C[C@H](CC1CCCCC1)C(=O)N1CCC(O)(Cn2cc(C(=O)N(C)C)c(-c3ccccc3)cc2=O)C2(CCCCC2)C1 (stereo partly shown) | > 6.30 |
